Tested on: NFATC1
PROTOCOL: NFATC1 translocation in HSG cells (immunofluorescence)
Assay type: cell-based, human
MEASUREMENT_PARAMETERS: cyclosporine 1 μM; nifedipine 10 μM
QUANTITY_KIND: effect on lacritin-dependent NFATC1 translocation

COMPOUND_STRUCTURE_STRING: COc1ccc2c(c1)CC[C@@H]1[C@@H]2CC[C@]2(C)[C@@H](NCCCCCCN3C(=O)C=CC3=O)CC[C@@H]12
REPORTED: inhibited
--
COMPOUND_STRUCTURE_STRING: Cn1c2ccccc2c2c3c(c4c5ccccc5n(CCC#N)c4c21)CNC3=O
REPORTED: inhibited
--
COMPOUND_STRUCTURE_STRING: C/C=C(/C)C(=O)O[C@H]1C(C)=C2[C@H]([C@@H]1OC(=O)CCCCCCC)[C@@](C)(OC(C)=O)C[C@H](OC(=O)CCC)[C@@]1(O)[C@H]2OC(=O)[C@@]1(C)O
REPORTED: inhibited
--
COMPOUND_STRUCTURE_STRING: [Gd]
REPORTED: non-inhibitory
--
COMPOUND_STRUCTURE_STRING: O=C(O)CN(CCOCCOCCN(CC(=O)O)CC(=O)O)CC(=O)O
REPORTED: non-inhibitory
